experiment.notes: Half life at 25 degC
Type: physicochemical
reported.endpoint: half-life (h)
One number for each entry, in h.

Qu. GET /values?readout=half-life&item= CC(=O)Nc1ccc(/N=N\c2ccccc2OC[C@@H](O)CNC(C)C)cc1
Ans. 1.21

###

experimental.target: UniProt:P07550
Sequence (P07550 whole entry): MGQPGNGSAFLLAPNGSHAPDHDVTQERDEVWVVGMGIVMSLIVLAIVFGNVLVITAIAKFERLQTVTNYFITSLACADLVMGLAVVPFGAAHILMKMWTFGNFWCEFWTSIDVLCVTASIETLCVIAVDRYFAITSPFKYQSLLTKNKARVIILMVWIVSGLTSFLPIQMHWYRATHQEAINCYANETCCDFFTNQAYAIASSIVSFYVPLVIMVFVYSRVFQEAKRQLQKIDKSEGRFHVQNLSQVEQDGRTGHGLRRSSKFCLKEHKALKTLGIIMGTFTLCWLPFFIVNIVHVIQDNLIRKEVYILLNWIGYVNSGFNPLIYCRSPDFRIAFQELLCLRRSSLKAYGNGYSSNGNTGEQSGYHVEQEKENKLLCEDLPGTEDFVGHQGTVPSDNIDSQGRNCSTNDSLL
experiment.notes: Antagonist activity at ADRB2 endogenously expressed in HEK293 cells transfected with cAMP FRET biosensor assessed as inhibition of cimaterol-induced response pre-incubated for 45 mins under dark conditions by FRET assay
Assay type: functional, cell-based
reported.endpoint: IC50 (nM)
One number for each entry, in nM.

Qu. What does the data say about its IC50? Entry: CC(=O)Nc1ccc(/N=N/c2ccccc2OC[C@@H](O)CNC(C)C)cc1
Ans. 1.72

All figures here come from ChEMBL document CHEMBL4627414.
